# experimental_system: T1, IRP1 (iron regulatory protein 1) (rabbit, UniProt Q01059 1-889)
# T1 sequence: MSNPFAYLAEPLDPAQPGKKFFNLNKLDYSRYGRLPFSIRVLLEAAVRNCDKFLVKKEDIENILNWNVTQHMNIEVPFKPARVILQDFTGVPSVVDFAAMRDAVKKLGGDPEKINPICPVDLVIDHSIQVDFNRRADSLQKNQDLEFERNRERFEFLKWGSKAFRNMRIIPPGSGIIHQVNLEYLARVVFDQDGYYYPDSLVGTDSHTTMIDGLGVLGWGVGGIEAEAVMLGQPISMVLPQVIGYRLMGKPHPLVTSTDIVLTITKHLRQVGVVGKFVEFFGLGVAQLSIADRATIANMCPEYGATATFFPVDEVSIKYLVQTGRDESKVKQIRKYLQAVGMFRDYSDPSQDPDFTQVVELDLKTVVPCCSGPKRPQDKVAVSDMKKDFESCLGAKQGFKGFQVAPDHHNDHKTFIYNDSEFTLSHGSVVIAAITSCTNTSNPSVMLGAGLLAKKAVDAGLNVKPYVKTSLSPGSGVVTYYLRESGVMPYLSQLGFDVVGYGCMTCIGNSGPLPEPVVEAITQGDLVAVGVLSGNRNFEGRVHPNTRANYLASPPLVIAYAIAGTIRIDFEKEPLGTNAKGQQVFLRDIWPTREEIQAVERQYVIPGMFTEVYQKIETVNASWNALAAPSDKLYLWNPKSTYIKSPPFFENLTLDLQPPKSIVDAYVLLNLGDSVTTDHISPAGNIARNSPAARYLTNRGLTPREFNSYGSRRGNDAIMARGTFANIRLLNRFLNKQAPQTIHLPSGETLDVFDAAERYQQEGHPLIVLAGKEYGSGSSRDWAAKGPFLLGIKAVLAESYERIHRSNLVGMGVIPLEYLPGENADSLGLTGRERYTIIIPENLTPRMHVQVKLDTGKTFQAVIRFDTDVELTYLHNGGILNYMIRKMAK
# assay_details: fluorescence anisotropy; 30 °C, no Mn2+; 40 mM HEPES pH 7.2, 100 mM KCl, 5-30 °C, ±50 µM Mn2+; labeled RNA 50 nM or 100 nM (Methods)
# condition_notes: protein: recombinant; label: 5' fluorescein; hairpin
readout: Kd
Be sure to follow the number with its unit.

CCUCAUCUUUGUCAGUGCACAAAAUGGCG (structured_RNA) [ACO2 IRE-RNA (mitochondrial aconitase IRE)] :: 155 nM

Note: attention shifts to another entry.
Kd reading for GUUCUUGCUUCAACAGUGUUUGAACGGAAC (structured_RNA) [FRT IRE-RNA (ferritin IRE)] : 19.2 nM
